# target_entity: human ether-à-go-go-related gene (hERG) potassium channel (human);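 also: peak tail current of the secondary pulse compared with the same well before compound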
# procedure_details: primary screen, population patch clamp on CHO cells stably expressing hERG; higher = less effect of the substance
# Protocol: Briefly, Chinese hamster ovary (CHO) cells stably expressing the hERG channel were dislodged from tissue culture flasks and dispensed into PPC plates. […] During the recording, background leak currents were estimated by a 100 ms step to -80 mV from an initial holding potential of -70 mV and subtracted from the subsequent current measurement. The campaign was conducted in two phases using slight differences in recording protocol. […]
Among all 310,000 compounds or so, about 14,000 (4.5%) showed an effect of 50% or more. Effects have a minus sign here. Only a selection was taken, and strong results are over-represented in it overall.
readout_name: hERG current change (%, negative = inhibition) at 10uM (%)
Use % as the unit, but write only the number.

IN: Consider the compound O=C1C2CCCN2C(=O)N1CCCCN1CCN(c2ccccc2)CC1 (stereo not shown) and give its measured hERG current change (%, negative = inhibition) at 10uM.
OUT: -21.6

IN: Which hERG current change (%, negative = inhibition) at 10uM reading was recorded for the compound O=C1C2CCCN2C(=O)N1CCCN1CCN(c2cccc(Cl)c2)CC1 (stereo not shown) ?
OUT: -2.8

IN: For the compound CCN1CCN(CC(=O)N2CCCC(C(=O)c3ccc(Oc4ccccc4)cc3)C2)CC1 (stereo not shown) , what hERG current change (%, negative = inhibition) at 10uM is on record?
OUT: -52.7

IN: Could you share which hERG current change (%, negative = inhibition) at 10uM value was measured for O=C1C2CCCN2C(=O)N1CCCCN1CCN(c2cccc(C(F)(F)F)c2)CC1 (stereo not shown) ?
OUT: -60.9

IN: What hERG current change (%, negative = inhibition) at 10uM value was documented for this compound, CCn1nc(C)cc1C(=O)N1CCCC(C(=O)c2ccc(Oc3ccccc3)cc2)C1 (stereo not shown) ?
OUT: -9.04

IN: So what's the measured hERG current change (%, negative = inhibition) at 10uM for this one? O=C1C2CCCN2C(=O)N1CCCCN1CCN(CCO)CC1 (stereo not shown)
OUT: -14.9

IN: Requested field: hERG current change (%, negative = inhibition) at 10uM. Item: O=C1C2CCCCN2C(=O)N1CCCCN1CCN(c2cccc(Br)c2)CC1 (stereo not shown)
OUT: -61.4

IN: Value lookup for hERG current change (%, negative = inhibition) at 10uM; key = Cl.O=C1C2CCCN2C(=O)N1CCCN1CCN(c2cccc(Br)c2)CC1 (stereo not shown)
OUT: -9.07

IN: Could you share which hERG current change (%, negative = inhibition) at 10uM value was measured for O=C1C2CCCN2C(=O)N1CCCCN1CCN(c2cccc(Cl)c2)CC1 (stereo not shown) ?
OUT: -65.6

IN: Entry under review: O=C1C2CCCCN2C(=O)N1CCCCN1CCN(c2cccc(Cl)c2)CC1 (stereo not shown) . Reported hERG current change (%, negative = inhibition) at 10uM?
OUT: -60.6

----------
Task for the reader: assign each of the following molecules its reported hERG current change (%, negative = inhibition) at 10uM.
# target_entity: human ether-à-go-go-related gene (hERG) potassium channel (human, UniProt Q12809);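 also: peak tail current of the secondary pulse compared with the same well before compound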
# Sequence (Q12809 whole entry, looked up): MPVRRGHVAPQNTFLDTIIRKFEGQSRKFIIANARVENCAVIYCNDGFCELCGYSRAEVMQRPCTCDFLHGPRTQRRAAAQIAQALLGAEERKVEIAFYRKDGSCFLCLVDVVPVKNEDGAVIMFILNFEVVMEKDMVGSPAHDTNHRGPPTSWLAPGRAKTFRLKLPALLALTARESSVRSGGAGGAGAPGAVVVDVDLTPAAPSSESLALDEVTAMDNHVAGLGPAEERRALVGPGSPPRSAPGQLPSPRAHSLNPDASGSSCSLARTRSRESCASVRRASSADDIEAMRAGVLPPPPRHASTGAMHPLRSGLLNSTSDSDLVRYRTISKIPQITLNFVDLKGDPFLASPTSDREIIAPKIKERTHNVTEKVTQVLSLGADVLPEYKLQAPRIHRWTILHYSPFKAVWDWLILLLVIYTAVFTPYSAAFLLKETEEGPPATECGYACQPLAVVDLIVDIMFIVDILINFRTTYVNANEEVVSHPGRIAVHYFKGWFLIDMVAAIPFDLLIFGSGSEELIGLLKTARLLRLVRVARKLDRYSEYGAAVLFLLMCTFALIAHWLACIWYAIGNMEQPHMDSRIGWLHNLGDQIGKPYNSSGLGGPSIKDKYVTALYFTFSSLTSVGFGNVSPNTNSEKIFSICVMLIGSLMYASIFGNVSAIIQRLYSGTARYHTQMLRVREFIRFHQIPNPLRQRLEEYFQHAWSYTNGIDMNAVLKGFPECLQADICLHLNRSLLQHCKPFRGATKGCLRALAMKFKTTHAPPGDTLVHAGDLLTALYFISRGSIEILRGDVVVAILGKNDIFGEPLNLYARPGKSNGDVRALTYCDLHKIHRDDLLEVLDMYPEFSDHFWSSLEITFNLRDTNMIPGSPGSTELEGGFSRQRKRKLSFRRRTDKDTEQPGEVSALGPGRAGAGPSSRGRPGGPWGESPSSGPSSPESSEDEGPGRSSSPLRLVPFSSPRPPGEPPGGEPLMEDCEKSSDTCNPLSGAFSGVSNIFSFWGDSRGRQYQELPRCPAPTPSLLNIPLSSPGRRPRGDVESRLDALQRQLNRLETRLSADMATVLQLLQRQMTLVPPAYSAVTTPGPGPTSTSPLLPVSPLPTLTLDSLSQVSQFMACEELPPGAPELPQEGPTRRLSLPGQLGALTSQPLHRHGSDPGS
# procedure_details: primary screen, population patch clamp on CHO cells stably expressing hERG; higher = less effect of the substance
# Procedure: Briefly, Chinese hamster ovary (CHO) cells stably expressing the hERG channel were dislodged from tissue culture flasks and dispensed into PPC plates. […] During the recording, background leak currents were estimated by a 100 ms step to -80 mV from an initial holding potential of -70 mV and subtracted from the subsequent current measurement. The campaign was conducted in two phases using slight differences in recording protocol. […]
Out of some 310,000 compounds screened, about 14,000 (4.5%) showed an effect of 50% or more. Effects have a minus sign here. For the sample, strong results were picked, then their nearest neighbours and some compounds at random.
Give the quantity in %, number only.

IN: Recorded hERG current change (%, negative = inhibition) at 10uM of CN1CCN(c2nc(Nc3ccc(F)cc3)nc(Nc3ccc(F)cc3)n2)CC1 , please.
OUT: -60.5

IN: hERG current change (%, negative = inhibition) at 10uM lookup needed for CCN(CC(=O)Nc1c(F)cccc1F)C(=O)c1n[nH]c2ccccc12 , thanks.
OUT: 10.4

IN: Fill blank: measured hERG current change (%, negative = inhibition) at 10uM of the molecule COc1cc(NS(=O)(=O)c2ccc(N/C=C(\C=O)c3nc4cc(Cl)ccc4o3)cc2)nc(OC)n1 is ____.
OUT: -2.34

IN: Fill blank: measured hERG current change (%, negative = inhibition) at 10uM of the molecule COc1ccccc1CNC(=O)Cn1c(=O)oc2cc(Cl)ccc21 is ____.
OUT: 0.41

IN: Name the reported hERG current change (%, negative = inhibition) at 10uM value associated with the molecule CC(NC(=O)C1=CC=CN2CCS(=O)(=O)N=C12)c1ccc(Cl)cc1Cl (stereo not drawn)
OUT: -57.9

IN: Fill in the blank: the reported hERG current change (%, negative = inhibition) at 10uM of Cc1ccc(CNc2nc3ccccc3n3nnnc23)cc1 is ____.
OUT: 10.6

IN: Report hERG current change (%, negative = inhibition) at 10uM for O=C(C[n+]1ccccc1)Nc1nc2ccccc2s1.[Cl-] please.
OUT: 0.223

IN: Query (molecule): COc1ccccc1N1CCN(C(=O)c2sc3ncn(CC(=O)N4CCC(C)CC4)c(=O)c3c2C)CC1 ; field requested: hERG current change (%, negative = inhibition) at 10uM
OUT: -29.3

IN: Data request, read-out hERG current change (%, negative = inhibition) at 10uM, for O=C(NCCc1ccc(Cl)cc1)C1=CC=CN2CCS(=O)(=O)N=C12
OUT: -9.31
